Source of measurements: BigSolDB 2.1

- experimental_parameters: in n-propanol, 273.15 K
measurement_kind: solubility (mole fraction)

- smiles_code: "CC(=O)Oc1ccc(C(c2ccc(OC(C)=O)cc2)c2ccccn2)cc1"
  test_value: "5.6e-05"

---

- experimental_parameters: in 1,4-dioxane, 313.15 K

- smiles_code: "CC(=O)Oc1ccc(C(c2ccc(OC(C)=O)cc2)c2ccccn2)cc1"
  solubility (mole fraction): 0.00424

---

- experimental_parameters: in toluene, 298.15 K

- smiles_code: "CC(=O)Oc1ccc(C(c2ccc(OC(C)=O)cc2)c2ccccn2)cc1"
  solubility (mole fraction): 0.00105

---

- experimental_parameters: in isopropanol, 293.15 K

- smiles_code: "CC(=O)Oc1ccc(C(c2ccc(OC(C)=O)cc2)c2ccccn2)cc1"
  solubility (mole fraction): "9.8e-05"

---

- experimental_parameters: in n-butanol, 288.15 K

- smiles_code: "CC(=O)Oc1ccc(C(c2ccc(OC(C)=O)cc2)c2ccccn2)cc1"
  solubility (mole fraction): 0.000131

---

- experimental_parameters: in n-butanol, 273.15 K
measurement_kind: solubility (mole fraction)

- smiles_code: "CC(=O)Oc1ccc(C(c2ccc(OC(C)=O)cc2)c2ccccn2)cc1"
  test_value: "7.1e-05"

---

- experimental_parameters: in NMP, 288.15 K
measurement_kind: solubility (mole fraction)

- smiles_code: "CC(=O)Oc1ccc(C(c2ccc(OC(C)=O)cc2)c2ccccn2)cc1"
  measurement_kind: "solubility (mole fraction)"
  test_value: 0.00264

---

- experimental_parameters: in 1,4-dioxane, 293.15 K

- smiles_code: "CC(=O)Oc1ccc(C(c2ccc(OC(C)=O)cc2)c2ccccn2)cc1"
  solubility (mole fraction): 0.00274

---

- experimental_parameters: in methanol, 288.15 K

- smiles_code: "CC(=O)Oc1ccc(C(c2ccc(OC(C)=O)cc2)c2ccccn2)cc1"
  solubility (mole fraction): 0.000101

---

- experimental_parameters: in NMP, 298.15 K

- smiles_code: "CC(=O)Oc1ccc(C(c2ccc(OC(C)=O)cc2)c2ccccn2)cc1"
  solubility (mole fraction): 0.0033

---

- experimental_parameters: in acetone, 298.15 K

- smiles_code: "CC(=O)Oc1ccc(C(c2ccc(OC(C)=O)cc2)c2ccccn2)cc1"
  solubility (mole fraction): 0.00281

---

- experimental_parameters: in ethyl acetate, 313.15 K

- smiles_code: "CC(=O)Oc1ccc(C(c2ccc(OC(C)=O)cc2)c2ccccn2)cc1"
  solubility (mole fraction): 0.00263

---

- experimental_parameters: in isopropanol, 303.15 K
measurement_kind: solubility (mole fraction)

- smiles_code: "CC(=O)Oc1ccc(C(c2ccc(OC(C)=O)cc2)c2ccccn2)cc1"
  measurement_kind: "solubility (mole fraction)"
  test_value: 0.000142

---

- experimental_parameters: in ethyl acetate, 273.15 K

- smiles_code: "CC(=O)Oc1ccc(C(c2ccc(OC(C)=O)cc2)c2ccccn2)cc1"
  solubility (mole fraction): 0.000724

---

- experimental_parameters: in acetone, 313.15 K

- smiles_code: "CC(=O)Oc1ccc(C(c2ccc(OC(C)=O)cc2)c2ccccn2)cc1"
  solubility (mole fraction): 0.00403

---

- experimental_parameters: in NMP, 303.15 K
measurement_kind: solubility (mole fraction)

- smiles_code: "CC(=O)Oc1ccc(C(c2ccc(OC(C)=O)cc2)c2ccccn2)cc1"
  test_value: 0.00372
